The measured values listed here are drawn from PubChem BioAssay AID1159580.

# Lookup of reported normalized growth keyed by entry
Assay: chemical genetic growth profiling, strain panel (AID 1159580);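 further: tested at 20 µM; growth read once vehicle control cultures reached saturation at 30 °C; 1 = growth at the plate median or of vehicle wells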
Conditions: S. cerevisiae deletion strains, growth OD, locus YDR502C, strain sam2, stronger effect = lower value
Among all 5,500 compounds or so, about 2,000 (36%) were called active. About 18% were inconclusive and are not listed. This is one part of the list.
Quick one: just the number, no unit, thanks!

[ask] Tell us which normalized growth value is on record for C[C@@H]1[C@H]2[C@H](O[C@@H]3O[C@H](CO)[C@@H](O)[C@H](O)[C@H]3O)OC=C(C(=O)O)[C@H]2C[C@@H]1O
[reply] 1

[ask] Name the recorded normalized growth of the item COc1cc(NS(=O)(=O)c2ccc(N)cc2)nc(OC)n1 in your answer.
[reply] 0.98

[ask] Identify measured normalized growth corresponding to O=C1C=CC(=C(c2ccc(O)cc2)c2ccc(O)cc2)C=C1
[reply] 1

[ask] Report normalized growth, nothing else, for this compound: OCC(O)C(O)C(O)CO (stereo unspecified)
[reply] 0.995

Continuing:
[ask] Look up and state reported normalized growth for C[C@H]1OC(n2cc(F)c(=O)[nH]c2=O)C(O)[C@@H]1O (stereo partly specified)
[reply] 1

[ask] Recall and state the measured normalized growth for COCCc1ccc(OCC(O)CNC(C)C)cc1 (stereo unspecified) .
[reply] 0.997

----------
Assay: chemical genetic growth profiling, strain panel (AID 1159580);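 further: tested at 20 µM; growth read once vehicle control cultures reached saturation at 30 °C; 1 = growth at the plate median or of vehicle wells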
Settings: S. cerevisiae deletion strains, growth OD, locus YMR001C, strain CDC5
About 2,000 (36%) of roughly 5,500 compounds were called active. Inconclusive results (about 18%) are left out. No stated cut-off is given here; in the data, active means normalized growth mostly below about 0.91 (no sharp cut-off); inconclusive means no clear call, values can overlap the other calls; inactive means mostly above about 0.92. The list shows a part of the results.
Entry note: the call must match one of active, inactive

[ask] GET /call?item= COc1ccc(/C=C2\CSc3ccc(F)cc3C2=O)cc1 returns the recorded outcome of this test.
[reply] inactive

[ask] Recorded test outcome, item Cc1cc(Cl)ccc1NNC(=O)c1ccno1
[reply] inactive

[ask] How did this test come out for Cc1cc(NNC(=O)c2ccccc2Cl)nc2c1c(C)nn2C ?
[reply] inactive

Then this compound:
[ask] Tell me the recorded outcome of this test for CSC1=NNC(c2nn(C)cc2Cl)S1 (centres undefined) .
[reply] active

----------
Assay: chemical genetic growth profiling, strain panel (AID 1159580);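 further: tested at 20 µM; growth read once vehicle control cultures reached saturation at 30 °C; 1 = growth at the plate median or of vehicle wells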
Details: S. cerevisiae deletion strains, growth OD, locus YKL085W, strain MDH1 (second series), stronger effect = lower value
About 2,000 (36%) of roughly 5,500 compounds were called active. Roughly 18% stayed inconclusive and do not appear here. Some of the results follow.
property name: normalized growth
No unit in the answer, please; the number alone is enough.

[ask] Provide normalized growth value for the following compound: COc1cc2c(cc1OC)C1C(=O)c3ccc4c(c3OC1CO2)CCC(C)(C)O4 (stereo not drawn)
[reply] 1.01

More entries:
[ask] Give normalized growth for COc1cc2c(cc1OC)[C@@H]1C(=O)c3ccc(OC)c(CC=C(C)C)c3O[C@@H]1CO2
[reply] 0.999

----------
Experiment: chemical genetic growth profiling, strain panel (AID 1159580);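 further: tested at 20 µM; growth read once vehicle control cultures reached saturation at 30 °C; 1 = growth at the plate median or of vehicle wells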
Settings: S. cerevisiae deletion strains, growth OD, locus YOR270C, strain vph1, stronger effect = lower value
Hit rate of the full screen: of about 5,500 compounds, about 2,000 (36%) were called active. Another 18% or so got no clear call; they are omitted. This is one part of the list.
property name: normalized growth
# answer = number (no unit)

Solved cases below.
[ask] Report normalized growth, nothing else, for this compound: Cc1cc(O)c(C=O)c(O)c1C(=O)O
[reply] 1.02

[ask] Using known records, supply normalized growth for NCC1CCC(C(=O)O)CC1 (configuration not stated)
[reply] 0.987

[ask] Could you please provide reported normalized growth for C[C@H]1CC2C([C@@H](O)C[C@@]3(C)C2CC[C@]3(O)C(=O)CO)[C@@]2(C)C=CC(=O)C=C12 (some centres not stated) ? Thanks!
[reply] 1.02

[ask] Report normalized growth for CC(=O)N[C@@H](CC(C)C)C(=O)O
[reply] 0.996

[ask] Supply recorded normalized growth for OCCN1C[C@@H](O)[C@@H](O)C(O)C1CO (some centres not stated) here.
[reply] 1.05

[ask] Return reported normalized growth. Input compound: CN(C)c1ccc(C(=C2C=CC(=[N+](C)C)C=C2)c2ccc(N(C)C)cc2)cc1
[reply] 0.762

Continue with the next compound.
[ask] Output measured normalized growth for this item: c1cncc(C2CCCCN2)c1 (configuration not stated)
[reply] 1
